Test protocol: In vivo pharmacokinetic test in rats
Set-up: species or system Wistar rats
Test conditions: male, Wistar, rat, plasma, iv; rats, I.V, 5 mg/kg; read-out: CL (converted)
Where a name gives a salt, the structure may show the parent alone.
Test readout: clearance (mL/min/kg)

Molecule | Test readout | Readout unit | Value observed
COCCCOc1ccnc(C[S+]([O-])c2nc3cc4c(cc3[nH]2)OCC4)c1C (stereo not shown) [Compound 1 (sodium salt)] | clearance | mL/min/kg | 32.5

###

Test protocol: In vivo pharmacokinetic test in rats
Design: species or system Wistar rats
Test conditions: male, Wistar, rat, in vivo, po; rats, P.O, 5 mg/kg; read-out: AUCinf

Mol | AUC(0-inf) (ng·h/mL)
COCCCOc1ccnc(C[S@+]([O-])c2nc3cc4c(cc3[nH]2)OCC4)c1C | 1740

###

Test protocol: In vivo pharmacokinetic test in rats
Design: species or system Wistar rats
Test conditions: male, Wistar, rat, in vivo, po; rats, P.O, 5 mg/kg; read-out: Cmax
Test readout: Cmax (µg/mL)

Mol | Value observed
COCCCOc1ccnc(C[S@+]([O-])c2nc3cc4c(cc3[nH]2)OCC4)c1C | 5.78

Data credit: patent US9315513B2
